I'd appreciate it if you could supply half-life at 1 µM values for the items below.
Test: Half life in human liver microsomes at 1 uM by LC-MS/MS analysis

Use the examples below as a reference point.
[
  {
    "COMPOUND": "CC(=O)NC1CC[C@@]2(C)C(CC[C@@H]3[C@@H]2CC[C@]2(C)C(c4cccnc4)=CC[C@@H]32)C1 (single isomer, unassigned)",
    "half-life at 1 µM": "1 to 50 min"
  },
  {
    "COMPOUND": "COc1cncc(C2=CC=C3[C@@H]4CCC5=CC(=O)CC[C@]5(C)[C@H]4CC[C@]23C)c1",
    "half-life at 1 µM": "1 to 50 min"
  },
  {
    "COMPOUND": "C[C@]12CCC(=O)OC[C@@H]1CC[C@@H]1[C@@H]2CC[C@]2(C)C(c3cccnc3)=CC[C@@H]12",
    "half-life at 1 µM": "1 to 50 min"
  },
  {
    "COMPOUND": "COc1cncc(C2=CC=C3[C@@H]4CC=C5C[C@@H](O)CC[C@]5(C)[C@H]4CC[C@]23C)c1",
    "half-life at 1 µM": "≥ 50 min"
  }
]

Please go through the list and note half-life at 1 µM for each compound.
1. C[C@@]1(O)CC[C@@]2(C)C(CC[C@@H]3[C@@H]2CC[C@]2(C)C(c4cncc(F)c4)=CC[C@@H]32)C1 (some centres not stated)
2. C[C@]12CC[C@H]3[C@@H](CC[C@H]4CC(=O)CC[C@@]43C)C1=CC=C2c1cccnc1
3. C[C@]12CCNC(=O)C=C1CC[C@@H]1[C@@H]2CC[C@]2(C)C(c3cccnc3)=CC[C@@H]12

A)
1. 1 to 50 min
2. 1 to 50 min
3. 1 to 10 min

Where do the numbers come from? From ChEMBL document CHEMBL3882724.
